- experimental.details: AUC in ICR mouse at 10 mg/kg, po
- Format: ADME, organism-based
- Set-up: dose 10 mg/kg, route po
- experimental.setup: in vivo
property.measured: AUC

| mol.smiles | result |
| --- | --- |
| Cl.O=S1(=O)C=C(C2CC2)c2cc3nccc(Nc4ccc5scnc5c4)c3cc21 | 8200 ng·h/mL |

* * *

- experimental.details: Metabolic stability in mouse liver microsomes assessed as intrinsic clearance
- Type: ADME, Microsome
- experimental.setup: read-out: CLH

| mol.smiles | unit.abbreviation | CLint scaled |
| --- | --- | --- |
| Cl.O=S1(=O)C=C(C2CC2)c2cc3nccc(Nc4ccc5scnc5c4)c3cc21 | mL/min/kg | 212 |

* * *

- tgt: Voltage-gated inwardly rectifying potassium channel KCNH2 (Homo sapiens, UniProt Q12809)
- Sequence (Q12809 whole entry): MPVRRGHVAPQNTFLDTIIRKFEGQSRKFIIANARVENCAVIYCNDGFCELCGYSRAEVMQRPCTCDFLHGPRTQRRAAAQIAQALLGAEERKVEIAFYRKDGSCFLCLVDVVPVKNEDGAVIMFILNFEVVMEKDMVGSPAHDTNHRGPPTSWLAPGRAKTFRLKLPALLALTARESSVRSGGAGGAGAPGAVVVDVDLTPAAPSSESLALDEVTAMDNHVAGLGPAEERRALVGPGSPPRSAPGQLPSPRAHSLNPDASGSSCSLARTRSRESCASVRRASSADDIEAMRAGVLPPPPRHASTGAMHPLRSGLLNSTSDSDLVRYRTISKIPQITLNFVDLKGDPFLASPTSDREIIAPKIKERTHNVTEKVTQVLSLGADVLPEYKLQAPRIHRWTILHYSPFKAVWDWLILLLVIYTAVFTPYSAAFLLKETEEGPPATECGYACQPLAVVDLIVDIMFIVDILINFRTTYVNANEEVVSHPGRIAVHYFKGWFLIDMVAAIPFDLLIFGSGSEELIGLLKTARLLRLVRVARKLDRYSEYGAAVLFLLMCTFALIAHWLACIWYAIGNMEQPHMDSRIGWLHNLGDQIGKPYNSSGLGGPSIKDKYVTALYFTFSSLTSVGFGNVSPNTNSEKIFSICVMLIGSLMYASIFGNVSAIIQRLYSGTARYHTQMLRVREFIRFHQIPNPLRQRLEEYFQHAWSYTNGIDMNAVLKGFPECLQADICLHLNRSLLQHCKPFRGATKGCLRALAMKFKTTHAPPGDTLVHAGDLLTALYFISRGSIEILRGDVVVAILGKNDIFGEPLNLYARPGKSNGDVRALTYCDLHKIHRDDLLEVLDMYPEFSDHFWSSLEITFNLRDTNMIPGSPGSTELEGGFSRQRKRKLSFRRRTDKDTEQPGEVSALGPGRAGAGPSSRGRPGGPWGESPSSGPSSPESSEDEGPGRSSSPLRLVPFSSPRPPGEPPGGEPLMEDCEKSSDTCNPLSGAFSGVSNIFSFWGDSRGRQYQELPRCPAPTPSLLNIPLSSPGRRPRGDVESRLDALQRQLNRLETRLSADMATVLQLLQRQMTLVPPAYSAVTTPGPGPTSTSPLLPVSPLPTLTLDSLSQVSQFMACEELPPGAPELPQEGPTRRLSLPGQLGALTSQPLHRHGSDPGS

| mol.smiles | IC50 |
| --- | --- |
| Cl.O=S1(=O)C=C(C2CC2)c2cc3nccc(Nc4ccc5scnc5c4)c3cc21 | > 10 µM |

* * *

- tgt: UniProt:P08684
- Sequence (P08684 whole entry): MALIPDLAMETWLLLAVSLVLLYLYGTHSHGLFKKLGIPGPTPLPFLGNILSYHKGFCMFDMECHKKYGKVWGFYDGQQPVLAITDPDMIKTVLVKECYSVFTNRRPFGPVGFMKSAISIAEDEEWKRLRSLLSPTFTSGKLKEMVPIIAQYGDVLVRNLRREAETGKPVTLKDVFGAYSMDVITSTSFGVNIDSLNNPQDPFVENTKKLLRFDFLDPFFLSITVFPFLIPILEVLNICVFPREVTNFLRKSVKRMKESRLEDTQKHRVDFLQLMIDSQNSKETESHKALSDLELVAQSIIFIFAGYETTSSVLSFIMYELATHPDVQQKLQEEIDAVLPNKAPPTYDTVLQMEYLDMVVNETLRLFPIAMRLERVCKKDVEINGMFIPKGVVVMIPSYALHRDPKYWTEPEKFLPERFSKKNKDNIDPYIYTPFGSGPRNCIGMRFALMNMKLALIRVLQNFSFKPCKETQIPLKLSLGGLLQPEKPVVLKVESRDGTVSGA
- experimental.details: Inhibition of CYP3A4 (unknown origin) at 10 uM
- Type: ADME

| mol.smiles | tgt | inhibition at 10 µM |
| --- | --- | --- |
| Cl.O=S1(=O)C=C(C2CC2)c2cc3nccc(Nc4ccc5scnc5c4)c3cc21 | UniProt:P08684 | < 10% |

* * *

- experimental.details: Half life in C57BL/6 mouse plasma at 5 mg/kg, iv
- Format: ADME, organism-based

| mol.smiles | half-life |
| --- | --- |
| COc1cc2c(cn1)N(C)C(=O)[C@@H](NC(=O)c1nc3n(n1)[C@H](c1ccccc1)CC3)CC2 | 31.8 min |

* * *

- tgt: CYP2C19 (Homo sapiens, UniProt P33261)
- Sequence (P33261 whole entry): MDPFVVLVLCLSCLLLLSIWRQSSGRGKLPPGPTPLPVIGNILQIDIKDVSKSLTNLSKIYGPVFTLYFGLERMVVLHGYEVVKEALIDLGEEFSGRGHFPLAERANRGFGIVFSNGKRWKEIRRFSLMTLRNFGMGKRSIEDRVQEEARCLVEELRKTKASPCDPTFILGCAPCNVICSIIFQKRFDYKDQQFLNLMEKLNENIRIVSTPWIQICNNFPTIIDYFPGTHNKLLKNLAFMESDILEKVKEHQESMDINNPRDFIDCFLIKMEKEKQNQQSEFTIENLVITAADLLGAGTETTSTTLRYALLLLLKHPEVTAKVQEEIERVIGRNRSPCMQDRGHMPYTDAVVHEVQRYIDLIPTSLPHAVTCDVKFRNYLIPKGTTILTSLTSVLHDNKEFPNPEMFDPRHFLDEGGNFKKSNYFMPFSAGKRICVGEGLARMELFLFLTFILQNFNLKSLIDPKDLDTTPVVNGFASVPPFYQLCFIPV
- experimental.details: Inhibition of CYP2C19 (unknown origin) at 10 uM
- Format: ADME

| mol.smiles | inhibition at 10 µM |
| --- | --- |
| Cl.O=S1(=O)C=C(C2CC2)c2cc3nccc(Nc4ccc5scnc5c4)c3cc21 | < 10% |

* * *

- experimental.details: Half life in ICR mouse at 2 mg/kg, iv
- Type: ADME, organism-based
- experimental.setup: in vivo

| mol.smiles | half-life / h |
| --- | --- |
| Cl.O=S1(=O)C=C(C2CC2)c2cc3nccc(Nc4ccc5scnc5c4)c3cc21 | 1.5 |

* * *

- Tested on: Jurkat
- experimental.details: Anti-necroptotic activity in FADD-deficient human Jurkat cells assessed as reduction in cell growth preincubated for 30 mins followed by TNFalpha stimulation incubated overnight by CellTiter-Glo assay
- Format: functional, cell-based

| compound | EC50 |
| --- | --- |
| CN(c1ccc(NC(=O)Nc2ccc(OC(F)(F)F)cc2)cc1)c1ccnc(Nc2cccc(S(N)(=O)=O)c2)n1 [GW806742X] | 1850 nM |

* * *

- tgt: CYP2D6 (Homo sapiens, UniProt P10635)
- Sequence (P10635 whole entry): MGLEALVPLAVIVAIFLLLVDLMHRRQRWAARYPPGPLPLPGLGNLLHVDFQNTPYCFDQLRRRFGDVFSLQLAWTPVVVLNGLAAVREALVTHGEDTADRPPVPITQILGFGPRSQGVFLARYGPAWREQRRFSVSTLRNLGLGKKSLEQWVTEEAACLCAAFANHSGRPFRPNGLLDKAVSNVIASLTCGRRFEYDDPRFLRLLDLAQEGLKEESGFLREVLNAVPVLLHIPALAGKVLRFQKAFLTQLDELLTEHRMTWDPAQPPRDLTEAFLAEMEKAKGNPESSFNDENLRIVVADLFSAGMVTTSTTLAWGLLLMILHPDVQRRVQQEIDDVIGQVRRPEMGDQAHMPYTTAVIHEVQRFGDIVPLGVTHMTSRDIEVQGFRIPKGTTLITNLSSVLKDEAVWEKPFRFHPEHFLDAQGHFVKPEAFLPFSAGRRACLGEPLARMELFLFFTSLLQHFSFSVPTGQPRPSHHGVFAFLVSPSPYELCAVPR
- experimental.details: Inhibition of CYP2D6 (unknown origin) at 10 uM
- Type: ADME

| mol.smiles | tgt | inhibition at 10 µM |
| --- | --- | --- |
| Cl.O=S1(=O)C=C(C2CC2)c2cc3nccc(Nc4ccc5scnc5c4)c3cc21 | CYP2D6 (Homo sapiens, UniProt P10635) | < 10% |

* * *

- Test system: Jurkat
- experimental.details: Anti-necroptotic activity in FADD null human Jurkat cells assessed as inhibition of T/S/Z induced necroptosis by CellTiter-Glo Luminescent Cell Viability assay
- Assay type: functional, cell-based
property.measured: IC50

| mol.smiles | property.measured | result |
| --- | --- | --- |
| COc1nccnc1NS(=O)(=O)c1ccc(NC(=O)/C=C/c2ccc([N+](=O)[O-])s2)cc1 | IC50 | < 1 µM |

* * *

- experimental.details: Clearance in ICR mouse at 2 mg/kg, iv
- Assay type: ADME, organism-based
- experimental.setup: in vivo
property.measured: clearance

| mol.smiles | result |
| --- | --- |
| Cl.O=S1(=O)C=C(C2CC2)c2cc3nccc(Nc4ccc5scnc5c4)c3cc21 | 33 mL/min/kg |

* * *

- experimental.details: Volume of distribution in C57BL/6 mouse plasma at 5 mg/kg, iv
- Assay type: ADME, organism-based
property.measured: Vd (L/kg)

| mol.smiles | readout.number |
| --- | --- |
| COc1cc2c(cn1)N(C)C(=O)[C@@H](NC(=O)c1nc3n(n1)[C@H](c1ccccc1)CC3)CC2 | 1.84 |

* * *

- experimental.details: Clearance in C57BL/6 mouse plasma at 5 mg/kg, iv
- Assay type: ADME, organism-based

| mol.smiles | clearance (mL/min/kg) |
| --- | --- |
| COc1cc2c(cn1)N(C)C(=O)[C@@H](NC(=O)c1nc3n(n1)[C@H](c1ccccc1)CC3)CC2 | 49.2 |

* * *

- tgt: CYP2C9 (Homo sapiens, UniProt P11712)
- Sequence (P11712 whole entry): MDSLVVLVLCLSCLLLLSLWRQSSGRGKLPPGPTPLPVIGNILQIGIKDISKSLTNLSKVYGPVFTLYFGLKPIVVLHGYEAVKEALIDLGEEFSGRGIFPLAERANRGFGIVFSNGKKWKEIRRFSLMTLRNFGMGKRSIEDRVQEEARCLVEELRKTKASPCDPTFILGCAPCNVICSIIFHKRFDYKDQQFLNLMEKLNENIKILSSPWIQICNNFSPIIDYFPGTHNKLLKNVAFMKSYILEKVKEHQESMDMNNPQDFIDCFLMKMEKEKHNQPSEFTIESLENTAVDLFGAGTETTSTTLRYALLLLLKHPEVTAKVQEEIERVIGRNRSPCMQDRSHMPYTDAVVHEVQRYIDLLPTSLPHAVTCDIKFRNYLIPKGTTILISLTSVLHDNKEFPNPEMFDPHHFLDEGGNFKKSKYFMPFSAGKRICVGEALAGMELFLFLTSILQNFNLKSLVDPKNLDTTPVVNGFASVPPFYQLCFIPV
- experimental.details: Inhibition of CYP2C9 (unknown origin) at 10 uM
- Type: ADME
property.measured: inhibition at 10 µM

| mol.smiles | result |
| --- | --- |
| Cl.O=S1(=O)C=C(C2CC2)c2cc3nccc(Nc4ccc5scnc5c4)c3cc21 | < 10% |

* * *

- experimental.details: Metabolic stability in mouse liver microsomes assessed as half life
- Format: ADME, Microsome

| mol.smiles | half-life, min |
| --- | --- |
| Cl.O=S1(=O)C=C(C2CC2)c2cc3nccc(Nc4ccc5scnc5c4)c3cc21 | 26 |

* * *

- experimental.details: Metabolic stability in rat liver microsomes assessed as intrinsic clearance
- Format: ADME, Microsome
- experimental.setup: read-out: CLH
property.measured: CLint scaled (mL/min/kg)

| mol.smiles | readout.number |
| --- | --- |
| Cl.O=S1(=O)C=C(C2CC2)c2cc3nccc(Nc4ccc5scnc5c4)c3cc21 | 67 |

* * *

- experimental.details: Anti-necroptotic activity in mouse dermal fibroblast assessed as inhibition in T/S/Q induced necroptosis measured by flow cytometry
- Type: functional, cell-based
pIC50: −log10 of the molar value.
property.measured: pIC50

| molecule | result |
| --- | --- |
| CN(c1ccc(NC(=O)Nc2ccc(OC(F)(F)F)cc2)cc1)c1ccnc(Nc2cccc(S(N)(=O)=O)c2)n1 [GW806742X] | > 7.30 |
